- TARGET_DESC: Full-length human eIF4E (human, UniProt P06730 1-217)
- Sequence (P06730 whole entry): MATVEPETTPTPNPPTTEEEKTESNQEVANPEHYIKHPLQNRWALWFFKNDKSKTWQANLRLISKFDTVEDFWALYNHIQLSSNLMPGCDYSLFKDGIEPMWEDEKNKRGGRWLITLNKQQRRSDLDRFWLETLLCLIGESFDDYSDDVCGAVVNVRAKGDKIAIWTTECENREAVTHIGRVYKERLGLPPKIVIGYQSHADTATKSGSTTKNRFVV
- ASSAY_COMMENT: SPR
pKd: −log10 of the molar value.
QUANTITY: pKd

# BINDER, READING
records = [
    ("Ac-KKRYSREFLLGF-NH2 [eIF4G^D5S peptide]", 7.00),
]
